Target: T1, TPP-2614 (TweakR-ECD-34-68-hIgGFc-His-D47A) (human)
T1 construct: also called D47A TWEAKR mutein
Assay: ELISA, IgG coated 1 ug/ml, TWEAKR variant 250 ng/ml, anti-HIS HRP (FIG. 6C)
Reported property: % binding normalized by wt binding signal

TPP-2148 (antibody, human IgG1, kappa, V domains shown, Human IgG1) VH: EVQLLESGGGLVQPGGSLRLSCAASGFTFSPYPMMWVRQAPGKGLEWVSYISPSGGKTHYADSVKGRFTISRDNSKNTLYLQMNSLRAEDTAVYYCARGGDTYFDYFDYWGQGTLVTVSS VL: DIQMTQSPATLSASVGDRVTITCRASQSISSYLNWYQQKPGKAPKLLIYQASSLQSGVPSRFSGSGSGTDFTLTISSLQPEDFATYYCQQSYTSPFITFGPGTKVEIKR	< 5%
TPP-2149 (antibody, human IgG1, kappa, V domains shown, Human IgG1) VH: EVQLLESGGGLVQPGGSLRLSCAASGFTFSPYPMIWVRQAPGKGLEWVSYISPSGGKTHYADSVKGRFTISRDNSKNTLYLQMNSLRAEDTAVYYCARGGDTYFDYFDYWGQGTLVTVSS VL: DIQMTQSPATLSASVGDRVTITCRASQSISGYLNWYQQKPGKAPKLLIYQASSLQSGVPSRFSGSGSGTDFTLTISSLQPEDFATYYCQQSYTSPFITFGPGTKVEIKR	< 5%

Now for the binder whose % binding normalized by wt binding signal we want.
Query: Name the recorded % binding normalized by wt binding signal for TPP-1853 (antibody, human IgG1, kappa, V domains shown, Human IgG1) VH: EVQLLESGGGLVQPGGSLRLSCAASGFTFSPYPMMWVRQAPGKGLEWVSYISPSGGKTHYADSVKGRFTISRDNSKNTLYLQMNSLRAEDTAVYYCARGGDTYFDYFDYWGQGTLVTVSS VL: DIQMTQSPATLSASVGDRVTITCRASQSISSYLNWYQQKPGKAPKLLIYNASSLQSGVPSRFSGSGSGTDFTLTISSLQPEDFATYYCQQSYTSPGITFGPGTKVEIKR .
Result: < 5%

This collection of values is drawn from patent US20160237160A1.
